- target_or_system: Progesterone receptor (Homo sapiens); further: assay procedure not described here
- Sequence (P06401 whole entry): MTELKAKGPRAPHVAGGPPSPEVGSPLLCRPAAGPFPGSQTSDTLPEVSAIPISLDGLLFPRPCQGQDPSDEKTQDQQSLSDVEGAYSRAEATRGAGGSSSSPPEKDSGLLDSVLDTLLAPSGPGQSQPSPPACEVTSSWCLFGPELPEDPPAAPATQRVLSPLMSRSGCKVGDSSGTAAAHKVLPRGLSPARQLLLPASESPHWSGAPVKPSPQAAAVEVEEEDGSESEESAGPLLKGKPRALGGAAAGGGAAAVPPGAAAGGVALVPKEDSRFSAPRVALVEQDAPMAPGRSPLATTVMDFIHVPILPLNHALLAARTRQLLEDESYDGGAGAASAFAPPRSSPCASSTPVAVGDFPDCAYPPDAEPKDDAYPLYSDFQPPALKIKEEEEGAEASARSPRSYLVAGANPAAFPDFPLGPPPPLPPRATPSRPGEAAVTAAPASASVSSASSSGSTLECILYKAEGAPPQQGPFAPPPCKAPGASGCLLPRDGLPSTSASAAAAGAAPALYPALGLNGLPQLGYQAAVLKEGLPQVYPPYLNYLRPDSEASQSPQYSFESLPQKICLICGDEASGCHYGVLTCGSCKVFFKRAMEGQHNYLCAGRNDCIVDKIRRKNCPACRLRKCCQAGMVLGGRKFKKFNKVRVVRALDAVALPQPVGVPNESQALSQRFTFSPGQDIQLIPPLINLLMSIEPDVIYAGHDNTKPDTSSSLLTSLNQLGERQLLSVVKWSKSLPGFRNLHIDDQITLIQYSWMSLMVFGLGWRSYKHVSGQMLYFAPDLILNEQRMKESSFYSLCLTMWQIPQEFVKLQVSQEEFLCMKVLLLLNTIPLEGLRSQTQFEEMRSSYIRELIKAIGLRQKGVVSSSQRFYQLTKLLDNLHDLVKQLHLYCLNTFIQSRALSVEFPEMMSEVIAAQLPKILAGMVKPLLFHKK
- Format: functional
test_readout: AC50

Quick one: AC50 of N[C@@H](CC(=O)N1CCn2c(nnc2C(F)(F)F)C1)Cc1cc(F)c(F)cc1F [SITAGLIPTIN] ?
> 30 µM

Quick one: AC50 of CN(C)CCCNc1c2ccccc2nc2cccc([N+](=O)[O-])c12 [NITRACRINE] ?
> 30 µM

Quick one: AC50 of COc1ccc2nc3cc(Cl)ccc3c(Nc3cc(CN4CCCC4)c(O)c(CN4CCCC4)c3)c2n1 [PYRONARIDINE] ?
14 µM

###

Measurement record for UniProtKB P23975; quantity recorded: AC50.
Sequence (P23975 whole entry): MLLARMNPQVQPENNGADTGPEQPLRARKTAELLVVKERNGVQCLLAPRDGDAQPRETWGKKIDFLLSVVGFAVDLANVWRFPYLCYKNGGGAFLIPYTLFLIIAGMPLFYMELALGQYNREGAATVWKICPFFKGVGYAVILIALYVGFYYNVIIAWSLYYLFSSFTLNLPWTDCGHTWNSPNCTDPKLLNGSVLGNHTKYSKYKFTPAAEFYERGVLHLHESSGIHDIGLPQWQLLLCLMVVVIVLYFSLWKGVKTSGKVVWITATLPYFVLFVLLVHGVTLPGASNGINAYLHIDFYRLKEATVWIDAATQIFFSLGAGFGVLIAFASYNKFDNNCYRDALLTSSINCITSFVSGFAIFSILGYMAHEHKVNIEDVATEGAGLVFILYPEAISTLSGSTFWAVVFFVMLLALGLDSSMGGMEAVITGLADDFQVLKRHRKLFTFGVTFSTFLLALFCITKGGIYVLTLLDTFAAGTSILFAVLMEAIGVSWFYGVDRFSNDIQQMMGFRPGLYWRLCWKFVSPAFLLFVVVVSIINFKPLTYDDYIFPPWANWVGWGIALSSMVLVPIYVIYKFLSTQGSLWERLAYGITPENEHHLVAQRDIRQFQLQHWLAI

Requested read-out AC50, target or system UniProtKB P23975, entry C[C@]12C=CC(=O)N[C@@H]1CC[C@@H]1[C@@H]2CC[C@]2(C)[C@@H](C(=O)Nc3cc(C(F)(F)F)ccc3C(F)(F)F)CC[C@@H]12 [DUTASTERIDE]
> 10 µM

Requested read-out AC50, target or system UniProtKB P23975, entry C/C(=C\C(=O)OCCCCCCCCC(=O)O)C[C@@H]1OC[C@H](C[C@@H]2O[C@H]2[C@@H](C)[C@H](C)O)[C@@H](O)[C@H]1O [MUPIROCIN]
> 30 µM

###

- target_or_system: Muscarinic acetylcholine receptor M2 (Homo sapiens, UniProt P08172); further: assay procedure not described here
- Sequence (P08172 whole entry): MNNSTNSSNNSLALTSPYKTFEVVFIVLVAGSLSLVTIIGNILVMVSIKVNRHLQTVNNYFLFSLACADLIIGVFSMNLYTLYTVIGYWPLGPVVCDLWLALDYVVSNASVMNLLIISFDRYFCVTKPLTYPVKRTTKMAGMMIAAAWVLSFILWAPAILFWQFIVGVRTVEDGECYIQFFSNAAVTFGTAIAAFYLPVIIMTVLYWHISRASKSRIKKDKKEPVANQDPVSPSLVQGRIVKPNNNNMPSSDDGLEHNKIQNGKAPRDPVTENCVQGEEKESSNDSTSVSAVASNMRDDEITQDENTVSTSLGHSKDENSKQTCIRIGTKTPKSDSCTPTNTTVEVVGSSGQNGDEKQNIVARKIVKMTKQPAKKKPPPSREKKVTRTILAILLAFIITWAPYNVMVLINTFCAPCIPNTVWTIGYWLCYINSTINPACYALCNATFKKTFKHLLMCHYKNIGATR
- Assay type: functional, cell-based
Entries annotated with measured AC50

Completed entries (count: 5):
compound	reported_value
CCCCC(=O)O[C@]1(C(=O)CO)[C@@H](C)C[C@H]2[C@@H]3CCC4=CC(=O)C=C[C@]4(C)[C@@]3(F)[C@@H](O)C[C@@]21C [BETAMETHASONE VALERATE]	> 10 µM
CCC(C)C1(CC)C(=O)NC(=O)NC1=O (configuration not stated)	> 30 µM
C=C1/C(=C\C=C2/CCC[C@]3(C)[C@@H]([C@H](C)/C=C/[C@@H](O)C4CC4)CC[C@@H]23)C[C@@H](O)C[C@@H]1O	> 30 µM
C[C@H](CCC(=O)O)[C@H]1CC[C@H]2[C@@H]3[C@@H](O)C[C@@H]4C[C@H](O)CC[C@]4(C)[C@H]3CC[C@]12C	> 30 µM
COc1ccccc1OCCNCC(O)COc1cccc2[nH]c3ccccc3c12 (configuration not stated)	> 10 µM

Quick one: AC50 of `CC(C)c1nc(N(C)S(C)(=O)=O)nc(-c2ccc(F)cc2)c1/C=C/[C@@H](O)C[C@@H](O)CC(=O)O` ?
> 30 µM

Quick one: AC50 of `COc1ccccc1Oc1c(NS(=O)(=O)c2ccc(C(C)(C)C)cc2)nc(-c2ncccn2)nc1OCCO` ?
> 10 µM

Quick one: AC50 of `Cc1noc(NS(=O)(=O)c2ccc(N)cc2)c1C` ?
> 10 µM

Quick one: AC50 of CC(=O)OCC(=O)[C@@]1(O)[C@H](C)C[C@H]2[C@@H]3CCC4=CC(=O)C=C[C@]4(C)[C@@]3(F)[C@@H](O)C[C@@]21C [DEXAMETHASONE ACETATE] ?
> 10 µM

Quick one: AC50 of `CCCCC1C(=O)N(c2ccccc2)N(c2ccccc2)C1=O` ?
> 10 µM

Quick one: AC50 of CCC(=O)O[C@H]1CC[C@H]2[C@@H]3CCC4=CC(=O)CC[C@]4(C)[C@H]3CC[C@]12C [TESTOSTERONE PROPIONATE] ?
> 10 µM

Quick one: AC50 of `CO[C@H]1/C=C/O[C@@]2(C)Oc3c(C)c(O)c4c(O)c(c(/C=N/N5CCN(C)CC5)c(O)c4c3C2=O)NC(=O)/C(C)=C\C=C\[C@H](C)[C@H](O)[C@@H](C)[C@@H](O)[C@@H](C)[C@H](OC(C)=O)[C@@H]1C` ?
> 10 µM

Data credit: ChEMBL document CHEMBL5291721
